Target: UniProt P35968
Sequence (P35968 20-1356): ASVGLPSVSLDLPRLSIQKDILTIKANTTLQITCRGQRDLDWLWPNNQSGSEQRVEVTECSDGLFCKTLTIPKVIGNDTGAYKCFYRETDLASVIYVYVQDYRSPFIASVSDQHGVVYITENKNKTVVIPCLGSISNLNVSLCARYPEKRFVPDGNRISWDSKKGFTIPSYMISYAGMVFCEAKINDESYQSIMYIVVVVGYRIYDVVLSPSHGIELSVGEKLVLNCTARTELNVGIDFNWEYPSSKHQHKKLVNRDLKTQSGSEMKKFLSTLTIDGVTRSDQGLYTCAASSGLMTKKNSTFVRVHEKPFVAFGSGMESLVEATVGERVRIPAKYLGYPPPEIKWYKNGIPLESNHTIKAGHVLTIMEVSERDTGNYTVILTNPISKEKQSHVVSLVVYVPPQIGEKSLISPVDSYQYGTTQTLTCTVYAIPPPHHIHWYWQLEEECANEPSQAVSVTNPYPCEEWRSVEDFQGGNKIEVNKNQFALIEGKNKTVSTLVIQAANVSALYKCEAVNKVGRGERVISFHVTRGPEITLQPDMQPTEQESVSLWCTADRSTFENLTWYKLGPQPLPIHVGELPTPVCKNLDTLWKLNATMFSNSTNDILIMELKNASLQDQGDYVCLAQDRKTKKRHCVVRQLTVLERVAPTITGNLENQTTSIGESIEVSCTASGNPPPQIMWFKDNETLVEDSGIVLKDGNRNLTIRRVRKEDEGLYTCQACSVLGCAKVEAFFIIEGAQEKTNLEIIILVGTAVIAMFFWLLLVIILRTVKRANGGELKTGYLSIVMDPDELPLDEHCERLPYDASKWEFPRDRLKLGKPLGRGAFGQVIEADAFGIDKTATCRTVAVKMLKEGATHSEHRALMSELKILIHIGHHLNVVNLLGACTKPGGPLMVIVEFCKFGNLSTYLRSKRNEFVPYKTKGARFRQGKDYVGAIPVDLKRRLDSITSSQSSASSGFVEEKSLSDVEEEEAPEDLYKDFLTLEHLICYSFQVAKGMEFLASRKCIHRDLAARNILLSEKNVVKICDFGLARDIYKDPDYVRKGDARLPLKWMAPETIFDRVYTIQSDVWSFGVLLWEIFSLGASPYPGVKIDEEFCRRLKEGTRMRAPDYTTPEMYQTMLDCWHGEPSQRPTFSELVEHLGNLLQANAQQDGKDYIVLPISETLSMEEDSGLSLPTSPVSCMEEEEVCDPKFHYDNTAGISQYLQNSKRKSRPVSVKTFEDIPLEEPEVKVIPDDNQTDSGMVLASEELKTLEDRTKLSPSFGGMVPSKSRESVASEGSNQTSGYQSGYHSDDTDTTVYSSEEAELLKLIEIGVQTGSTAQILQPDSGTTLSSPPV
# key: entry, value: IC50

Example compounds with recorded IC50:
INSERT INTO measurements (compound, val) VALUES
  ('COc1cc(OC)cc(-c2nccn3nc(Nc4cccc(C)c4)nc23)c1 [Example C17]', '3 to 50 µM'),
  ('COc1cc(Nc2nc3c(-c4cnn(C)c4)nccn3n2)cc(OC)c1 [Example C300]', '0.3 to 3 µM'),
  ('COc1cc(Nc2nc3c(-c4ccc(C(C)(C)C#N)cc4)nccn3n2)cc(OC)c1 [Example C256]', '0.3 to 3 µM'),
  ('CN(C)CCCNc1nccn2nc(Nc3ccccc3)nc12 [Example C50]', '3 to 50 µM');

Give IC50 for this entry on UniProt P35968: c1ccc2ncc(-c3nccn4nc(Nc5ccc(N6CCOCC6)cc5)nc34)cc2c1 [Example C261]
< 0.3 µM
